Reference source for all entries: patent US20150299263A1

- test_target: T1, Human receptor grade IGFBP-3 (insulin-like growth factor binding protein 3) (human, UniProt P17936 28-291)
- T1 construct: Bought recombinant protein, overlaid in solution on the VN-peptide array
- T1 sequence (P17936 28-291 limits assumed): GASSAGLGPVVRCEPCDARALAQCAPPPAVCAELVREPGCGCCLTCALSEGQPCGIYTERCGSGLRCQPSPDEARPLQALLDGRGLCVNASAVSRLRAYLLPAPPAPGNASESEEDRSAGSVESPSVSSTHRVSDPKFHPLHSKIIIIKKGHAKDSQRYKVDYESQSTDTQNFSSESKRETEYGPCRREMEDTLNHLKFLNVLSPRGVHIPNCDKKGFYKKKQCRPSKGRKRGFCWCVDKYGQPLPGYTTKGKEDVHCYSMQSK
- assay_overview: VN-peptide array, ligand overlay, immunoblot/ECL, TotalLab spot intensity
Where no end group is shown, it is not given here.
Kindly supply the reported Intensity (against -ve control) values for the records listed here.

# Intensity (against -ve control) of GRTSAGTRQPQFISRD (not fully specified (N-terminus); also: free end capped by acetylation, immobilised on cellulose membrane (SPOT synthesis)) [VN-peptide 6A (array grid G12)] = 2 fold over negative controls

# Intensity (against -ve control) of TRQPQFISRDWHGVPG (not fully specified (N-terminus); also: free end capped by acetylation, immobilised on cellulose membrane (SPOT synthesis)) [VN-peptide 6C (array grid G14)] = 1.5 fold over negative controls
